Values were extracted from patent US20230365572A1.

# Test system: Intracellular cAMP levels
# experiment: Measurement of intracellular cAMP levels in differentiated L6 cells (alpha screen cAMP kit)
# Assay type: cell-based
# cond: Rattus norvegicus, L6, 0.25 h; differentiated cells, agonist final concentration 1×10^−5 M, 15 min; read-out: Biological example 2: intracellular cAMP levels, activity compared to that of isoproterenol
Where a name gives a salt, the structure may show the parent alone.
quantityMeasured: Emax at 10 µM

Which measured Emax at 10 µM value corresponds to CC12CCC([C@H](O)c3ccccc3F)(CC1)N2 [Example 3, hydrochloride] ?
< 25%

Which measured Emax at 10 µM value corresponds to CCCC12CCC([C@H](O)c3cccc(F)c3)(CC1)N2 [Example 13, hydrochloride] ?
25 to 50%

Which measured Emax at 10 µM value corresponds to CC12CCC([C@H](O)c3ccccc3Cl)(CC1)N2 [Example 7, hydrochloride] ?
< 25%

Which measured Emax at 10 µM value corresponds to CC12CCC([C@@H](O)c3ccncc3F)(CC1)N2 [Example 12] ?
< 25%

Which measured Emax at 10 µM value corresponds to CC12CCC([C@@H](O)c3ccccc3F)(CC1)N2 [Example 4, hydrochloride] ?
< 25%
